These data points were gathered from patent US7026443.

# measurement-target: HLA-A*1101 (purified HLA class I molecule) (human)
# protocol-notes: competition with 125I-labelled standard peptide for purified HLA-A*1101, gel filtration
assay-readout: relative binding ratio (IC50 of standard peptide / IC50 of test peptide)

SIPHAACHK (modifications not checked) [HPV18 E6 59-67 peptide …]; 0.12
PLNPAEKLR (modifications not checked) [HPV18 E6 111-119 peptide …]; 0.0005
CMCCKCEARIK (modifications not checked) [HPV18 E7 63-73 peptide …]; 0.0002
RARQERLQR (modifications not checked) [HPV18 E6 144-152 peptide …]; 0.0002
RFEDPTRRPY (modifications not checked) [HPV18 E6 3-12 peptide …]; 0.0002
